- Test system: TxB2 production
- test_summary: TxB2 generation in clotted whole blood after i.v. dosing (method of Patrono et al, RIA)
- Type: in vivo, rabbits
- condition: Oryctolagus cuniculus, iv, 0.25 h; 0.3 mg/kg i.v., 15 MIN post dose
Examples of compounds with documented inhibition at 0.3 mg/kg follow.
Only the number, expressed in %, is required.

Known inhibition at 0.3 mg/kg results, listed for orientation:
Given the compound Cc1c(Sc2cccnc2)sc2ccc(C(=O)O)cc12 , what is its reported inhibition at 0.3 mg/kg?
81

Given the compound Cc1c(Cn2ccnc2)sc2ccc(C(=O)O)cc12 , what is its reported inhibition at 0.3 mg/kg?
94

Given the compound O=C(O)c1ccc2sc(Cn3ccnc3)cc2c1 , what is its reported inhibition at 0.3 mg/kg?
96

Given the compound Cc1c(Cn2ccnc2)n(C)c2ccc(C(=O)O)cc12 , what is its reported inhibition at 0.3 mg/kg?
95

---
Given the compound Cc1c(Cn2ccnc2)sc2cc(C(=O)O)ccc12 , what is its reported inhibition at 0.3 mg/kg?
100

Given the compound O=C(O)c1ccc2oc(Cn3ccnc3)c(Br)c2c1 , what is its reported inhibition at 0.3 mg/kg?
84
